SUBJECT_OF_TEST: PRMT4 (Homo sapiens, UniProt Q86X55)
Sequence (Q86X55 whole entry, species assumed): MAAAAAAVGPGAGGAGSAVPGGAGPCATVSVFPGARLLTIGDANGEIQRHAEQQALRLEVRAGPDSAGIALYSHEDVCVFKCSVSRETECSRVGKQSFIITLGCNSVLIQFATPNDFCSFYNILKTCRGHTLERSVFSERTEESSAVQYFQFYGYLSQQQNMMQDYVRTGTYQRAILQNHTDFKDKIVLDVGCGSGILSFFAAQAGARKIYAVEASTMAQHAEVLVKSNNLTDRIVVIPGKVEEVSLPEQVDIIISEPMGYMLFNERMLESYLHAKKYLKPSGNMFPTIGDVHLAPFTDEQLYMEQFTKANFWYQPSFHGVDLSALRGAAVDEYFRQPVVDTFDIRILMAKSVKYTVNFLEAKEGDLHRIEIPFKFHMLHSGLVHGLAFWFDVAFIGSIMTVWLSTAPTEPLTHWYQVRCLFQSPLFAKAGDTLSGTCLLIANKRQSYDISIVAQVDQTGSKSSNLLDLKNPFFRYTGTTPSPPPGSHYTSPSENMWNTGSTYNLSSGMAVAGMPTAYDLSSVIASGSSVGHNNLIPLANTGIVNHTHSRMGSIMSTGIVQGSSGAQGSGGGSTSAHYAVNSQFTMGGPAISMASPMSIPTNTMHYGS
PROCEDURE_DETAILS: radioactive assay (Reaction Biology Corp.), inhibition of PRMT4
Assay type: biochemical
Procedure: Next, the inhibition activity of the library was investigated for five PRMT members from type I PRMTs. The PRMT 4, 6 and 8 methylation assays were performed by Reaction Biology corp.
Quick list: inhibition at 10 µM per entry.
REPORTED_METRIC: inhibition at 10 µM (%)

>  <COMPOUND>
Nc1ncnc2c1ncn2[C@@H]1O[C@H](CSCCNC(=O)NCCc2ccccc2)[C@@H](O)[C@H]1O

>  <UNIT_NAME>
%

>  <DATA_VALUE>
53

$$$$
>  <COMPOUND>
N=C(NCCSC[C@H]1O[C@@H](n2cnc3c(N)ncnc32)[C@H](O)[C@@H]1O)Nc1cccc(-c2cccc(F)c2)c1

>  <UNIT_NAME>
%

>  <DATA_VALUE>
100

$$$$
>  <COMPOUND>
N=C(NCCCSC[C@H]1O[C@@H](n2cnc3c(N)ncnc32)[C@H](O)[C@@H]1O)Nc1cccc(-c2cccnc2)c1

>  <UNIT_NAME>
%

>  <DATA_VALUE>
100

$$$$
>  <COMPOUND>
Nc1ncnc2c1ncn2[C@@H]1O[C@H](CSCCCNCc2cccc(-c3ccoc3)c2)[C@@H](O)[C@H]1O [Compound 10p]

>  <UNIT_NAME>
%

>  <DATA_VALUE>
99

$$$$
>  <COMPOUND>
N=C(NCCCSC[C@H]1O[C@@H](n2cnc3c(N)ncnc32)[C@H](O)[C@@H]1O)Nc1cccc(-c2ccc(Cl)cc2)c1

>  <UNIT_NAME>
%

>  <DATA_VALUE>
100

$$$$
>  <COMPOUND>
N=C(NCCCO)NCCCSC[C@H]1O[C@@H](n2cnc3c(NCCCc4ccccc4)ncnc32)[C@H](O)[C@@H]1O

>  <UNIT_NAME>
%

>  <DATA_VALUE>
54

$$$$
>  <COMPOUND>
Nc1ncnc2c1ncn2[C@@H]1O[C@H](CSCCNC(=O)NCc2ccc(-c3ccc(O)cc3)cc2)[C@@H](O)[C@H]1O

>  <UNIT_NAME>
%

>  <DATA_VALUE>
42

$$$$
>  <COMPOUND>
Nc1ccc(-c2ccc(CNC(=O)NCCSC[C@H]3O[C@@H](n4cnc5c(N)ncnc54)[C@H](O)[C@@H]3O)cc2)cc1

>  <UNIT_NAME>
%

>  <DATA_VALUE>
40

$$$$
>  <COMPOUND>
Nc1ncnc2c1ncn2[C@@H]1O[C@H](CSCCNCc2cccc(-c3cncnc3)c2)[C@@H](O)[C@H]1O [Compound 10g]

>  <UNIT_NAME>
%

>  <DATA_VALUE>
98

$$$$
>  <COMPOUND>
Nc1cccc(-c2cccc(CNCCSC[C@H]3O[C@@H](n4cnc5c(N)ncnc54)[C@H](O)[C@@H]3O)c2)c1 [Compound 10l]

>  <UNIT_NAME>
%

>  <DATA_VALUE>
100

$$$$
>  <COMPOUND>
Nc1ncnc2c1ncn2[C@@H]1O[C@H](CSCCCNC(=O)NCCc2ccccc2)[C@@H](O)[C@H]1O

>  <UNIT_NAME>
%

>  <DATA_VALUE>
47

$$$$
>  <COMPOUND>
Nc1ncnc2c1ncn2[C@@H]1O[C@H](CSCCNC(=O)Nc2ccc(F)cc2)[C@@H](O)[C@H]1O

>  <UNIT_NAME>
%

>  <DATA_VALUE>
88

$$$$
>  <COMPOUND>
Nc1ncnc2c1ncn2[C@@H]1O[C@H](CSCCOc2ccc(-c3ccccc3O)cc2)[C@@H](O)[C@H]1O [Compound 14g]

>  <UNIT_NAME>
%

>  <DATA_VALUE>
35

$$$$
>  <COMPOUND>
N=C(NCCCSC[C@H]1O[C@@H](n2cnc3c(N)ncnc32)[C@H](O)[C@@H]1O)NCc1ccccc1

>  <UNIT_NAME>
%

>  <DATA_VALUE>
97

$$$$
>  <COMPOUND>
COc1cc2nc(-c3ccc(C(F)(F)F)cc3)nc(NCCSC[C@H]3O[C@@H](n4cnc5c(N)ncnc54)[C@H](O)[C@@H]3O)c2cc1OC [Compound 12e]

>  <UNIT_NAME>
%

>  <DATA_VALUE>
43

$$$$
>  <COMPOUND>
Nc1ncnc2c1ncn2[C@@H]1O[C@H](CSCCNCc2cccc(-c3ccc(Cl)cc3)c2)[C@@H](O)[C@H]1O [Compound 10a]

>  <UNIT_NAME>
%

>  <DATA_VALUE>
99

$$$$
>  <COMPOUND>
Nc1ncnc2c1ncn2[C@@H]1O[C@H](CSCCOc2ccc(-c3ccoc3)cc2)[C@@H](O)[C@H]1O [Compound 14c]

>  <UNIT_NAME>
%

>  <DATA_VALUE>
17

$$$$
>  <COMPOUND>
N=C(NCCCSC[C@H]1O[C@@H](n2cnc3c(NCCCc4ccccc4)ncnc32)[C@H](O)[C@@H]1O)NCCc1ccccc1 [Compound 19l]

>  <UNIT_NAME>
%

>  <DATA_VALUE>
26

$$$$
>  <COMPOUND>
Nc1ncnc2c1ncn2[C@@H]1O[C@H](CSCCNCc2cccc(-c3ccoc3)c2)[C@@H](O)[C@H]1O [Compound 10d]

>  <UNIT_NAME>
%

>  <DATA_VALUE>
100

$$$$
>  <COMPOUND>
Nc1ncnc2c1ncn2[C@@H]1O[C@H](CSCCNCc2cccc(-c3cccc(O)c3)c2)[C@@H](O)[C@H]1O [Compound 10i]

>  <UNIT_NAME>
%

>  <DATA_VALUE>
100

$$$$
>  <COMPOUND>
COc1cc2nc(-c3ccc(Cl)cc3)nc(NCCSC[C@H]3O[C@@H](n4cnc5c(N)ncnc54)[C@H](O)[C@@H]3O)c2cc1OC [Compound 12a]

>  <UNIT_NAME>
%

>  <DATA_VALUE>
69

$$$$
>  <COMPOUND>
N=C(NCCSC[C@H]1O[C@@H](n2cnc3c(N)ncnc32)[C@H](O)[C@@H]1O)Nc1cccc(-c2ccoc2)c1

>  <UNIT_NAME>
%

>  <DATA_VALUE>
100

$$$$
>  <COMPOUND>
N=C(NCCCSC[C@H]1O[C@@H](n2cnc3c(N)ncnc32)[C@H](O)[C@@H]1O)Nc1cccc(F)c1

>  <UNIT_NAME>
%

>  <DATA_VALUE>
58

$$$$
>  <COMPOUND>
Nc1ncnc2c1ncn2[C@@H]1O[C@H](CSCCNC(=O)NCc2ccc(-c3cc[nH]n3)cc2)[C@@H](O)[C@H]1O

>  <UNIT_NAME>
%

>  <DATA_VALUE>
17

$$$$
>  <COMPOUND>
N=C(NCCSC[C@H]1O[C@@H](n2cnc3c(N)ncnc32)[C@H](O)[C@@H]1O)Nc1cccc(-c2ccc(C(F)(F)F)cc2)c1

>  <UNIT_NAME>
%

>  <DATA_VALUE>
100

$$$$
>  <COMPOUND>
Nc1ncnc2c1ncn2[C@@H]1O[C@H](CSCCNC(=O)NC2CCCCC2)[C@@H](O)[C@H]1O

>  <UNIT_NAME>
%

>  <DATA_VALUE>
34

$$$$
>  <COMPOUND>
N=C(NCCCSC[C@H]1O[C@@H](n2cnc3c(N)ncnc32)[C@H](O)[C@@H]1O)Nc1cccc(-c2ccc(O)cc2)c1

>  <UNIT_NAME>
%

>  <DATA_VALUE>
100

$$$$

====

Documented inhibition at 10 µM across a set of molecules
SUBJECT_OF_TEST: UniProtKB Q86X55
PROCEDURE_DETAILS: radioactive assay (Reaction Biology Corp.), inhibition of PRMT4
Type: biochemical
REPORTED_METRIC: inhibition at 10 µM (%)

>  <MOLECULE>
Nc1ncnc2c1ncn2[C@@H]1O[C@H](CSCCNC(=O)NCc2ccc(-c3cn[nH]c3)cc2)[C@@H](O)[C@H]1O

>  <SUBJECT_OF_TEST>
UniProtKB Q86X55

>  <REPORTED_METRIC>
inhibition at 10 µM

>  <UNIT_NAME>
%

>  <DATA_VALUE>
19

$$$$
>  <MOLECULE>
N=C(NCCCN)NCCCSC[C@H]1O[C@@H](n2cnc3c(NCCCc4ccccc4)ncnc32)[C@H](O)[C@@H]1O [Compound 19i]

>  <SUBJECT_OF_TEST>
UniProtKB Q86X55

>  <REPORTED_METRIC>
inhibition at 10 µM

>  <UNIT_NAME>
%

>  <DATA_VALUE>
37

$$$$
>  <MOLECULE>
Nc1ncnc2c1ncn2[C@@H]1O[C@H](CSCCNCc2cccc(-c3ccc(C(F)(F)F)cc3)c2)[C@@H](O)[C@H]1O [Compound 10e]

>  <SUBJECT_OF_TEST>
UniProtKB Q86X55

>  <REPORTED_METRIC>
inhibition at 10 µM

>  <UNIT_NAME>
%

>  <DATA_VALUE>
99

$$$$
>  <MOLECULE>
CCNC(=O)NCCSC[C@H]1O[C@@H](n2cnc3c(N)ncnc32)[C@H](O)[C@@H]1O

>  <SUBJECT_OF_TEST>
UniProtKB Q86X55

>  <REPORTED_METRIC>
inhibition at 10 µM

>  <UNIT_NAME>
%

>  <DATA_VALUE>
27

$$$$
>  <MOLECULE>
N=C(NCCCSC[C@H]1O[C@@H](n2cnc3c(N)ncnc32)[C@H](O)[C@@H]1O)Nc1cccc(-c2cncnc2)c1

>  <SUBJECT_OF_TEST>
UniProtKB Q86X55

>  <REPORTED_METRIC>
inhibition at 10 µM

>  <UNIT_NAME>
%

>  <DATA_VALUE>
100

$$$$
>  <MOLECULE>
Nc1ncnc2c1ncn2[C@@H]1O[C@H](CSCCNC(=O)NCc2ccc(F)cc2)[C@@H](O)[C@H]1O

>  <SUBJECT_OF_TEST>
UniProtKB Q86X55

>  <REPORTED_METRIC>
inhibition at 10 µM

>  <UNIT_NAME>
%

>  <DATA_VALUE>
95

$$$$
>  <MOLECULE>
N=C(NCCCSC[C@H]1O[C@@H](n2cnc3c(NCCCc4ccccc4)ncnc32)[C@H](O)[C@@H]1O)NC1CCCCC1 [Compound 19e]

>  <SUBJECT_OF_TEST>
UniProtKB Q86X55

>  <REPORTED_METRIC>
inhibition at 10 µM

>  <UNIT_NAME>
%

>  <DATA_VALUE>
44

$$$$

// provenance: patent US20260306527A1
